test system: H-Ras processing; experiment: Ras processing assay in H-RasF cells (NIH 3T3 transformed with oncogenic H-Ras-CVLS), immunoblot; format: cell-based; details: whole cells; read-out: H-Ras processing IC50
readout-label: IC50 (µM)

- CSCC[C@H](NC(=O)c1ccc(NC[C@@H](N)CS)cc1)C(=O)O: 100
- COC(=O)[C@H](CCSC)NC(=O)c1ccc(NC[C@@H](N)CS)cc1-c1ccccc1: 0.1

---

biological target: FTase (Homo sapiens, UniProt P49356); construct: FTase and GGTase I activities from 60,000×g supernatants of human Burkitt lymphoma (Daudi) cells; endogenous in cells; host or cells: human Burkitt lymphoma (Daudi) cells, 60,000xg supernatant (partially purified); experiment: FTase activity assay: transfer of [3H]farnesyl from FPP to recombinant H-Ras-CVLS, Daudi 60,000xg supernatant; type: biochemical; details: Table 5; read-out: In Vitro IC50 FTase
pIC50: −log10 of the molar value.
readout-label: pIC50

• CC(C)C[C@H](NC(=O)c1ccc(NC[C@@H](N)CS)cc1-c1ccccc1)C(=O)O = 7.60

---

biological target: FTase (Homo sapiens); construct: FTase and GGTase I activities from 60,000×g supernatants of human Burkitt lymphoma (Daudi) cells; endogenous in cells; host or cells: human Burkitt lymphoma (Daudi) cells, 60,000xg supernatant (partially purified); assay: FTase activity assay: transfer of [3H]farnesyl from FPP to recombinant H-Ras-CVLS, Daudi 60,000xg supernatant; format: biochemical; conditions: Table 4; FTase over GGTase I
Kindly apply the following: yes if Selectivity is less than 100, no in every other case.

• CCCOc1cc(NC[C@@H](N)CS)ccc1-c1cccc(C(=O)O)c1 [FTI-288, red.Cys-4-amino-2-OPr-3'-carboxybiphenyl] = yes
• N[C@@H](CS)CNc1ccc(-c2cccc(-c3nnn[nH]3)c2)cc1 [FTI-2102, red.Cys-4-amino-3'-tetrazolylbiphenyl] = no
• N[C@@H](CS)CNCc1cccc(-c2cccc(C(=O)O)c2)c1 [FTI-283, red.Cys-3-aminomethyl-3'-carboxybiphenyl] = yes
• Cc1cccc(-c2ccc(NC[C@@H](N)CS)cc2)c1 [FTI-263] = no
• N[C@@H](CS)CNc1ccc(-c2ccccc2C(=O)O)cc1 [FTI-273] = no

---

The entries below come with measured pIC50 values attached.
biological target: GGTase I (Homo sapiens); construct: FTase and GGTase I activities from 60,000×g supernatants of human Burkitt lymphoma (Daudi) cells; endogenous in cells; host or cells: human Burkitt lymphoma (Daudi) cells, 60,000xg supernatant (partially purified); assay: GGTase I activity assay: transfer of [3H]geranylgeranyl to recombinant H-Ras-CVLL, Daudi 60,000xg supernatant; format: biochemical; conditions: read-out: GGTase I IC50
pIC50: −log10 of the molar value.
readout-label: pIC50

- CC(C)C[C@H](NC(=O)c1ccc(NC[C@@H](N)CS)cc1-c1ccccc1)C(=O)O [GGTI-287]: 8.30
- N[C@@H](CS)CNc1ccc(-c2cccc(C(=O)O)c2)cc1 [FTI-265]: 4.00
- CSCC[C@H](NC(=O)c1ccc(NC[C@@H](N)CS)cc1-c1ccccc1)C(=O)O [FTI-276]: 7.30

---

target: FTase (Homo sapiens, UniProt P49356); construct: FTase and GGTase I activities from 60,000×g supernatants of human Burkitt lymphoma (Daudi) cells; endogenous in cells; host or cells: human Burkitt lymphoma (Daudi) cells, 60,000xg supernatant (partially purified); assay: FTase activity assay: transfer of [3H]farnesyl from FPP to recombinant H-Ras-CVLS, Daudi 60,000xg supernatant; format: biochemical; details: Table 4; FTase over GGTase I
# label = rule met if Selectivity >= 40 else rule not met

• COC(=O)c1cccc(-c2ccc(NC[C@@H](N)CS)cc2)c1 = rule met
• COc1cc(NC[C@@H](N)CS)ccc1-c1cccc(C(=O)O)c1 = rule met
• CSCC[C@H](NC(=O)c1ccc(NC[C@@H](N)CS)cc1)C(=O)O = rule not met
• N[C@@H](CS)C(=O)Nc1ccc(-c2cccc(C(=O)O)c2)cc1 = rule not met
• N[C@@H](CS)CNc1ccc(-c2cccc(C(=O)O)c2)cc1 = rule met
• Cc1cccc(-c2ccc(NC[C@@H](N)CS)cc2-c2ccccc2)c1 = rule not met
• N[C@@H](CS)CNc1ccc(-c2ccccc2)cc1 = rule met
